src = patent US20120258108A1

Target: Recombinant Human DLL4 (human, UniProt Q9NR61 27-524)
Sequence (Q9NR61 27-524 limits assumed): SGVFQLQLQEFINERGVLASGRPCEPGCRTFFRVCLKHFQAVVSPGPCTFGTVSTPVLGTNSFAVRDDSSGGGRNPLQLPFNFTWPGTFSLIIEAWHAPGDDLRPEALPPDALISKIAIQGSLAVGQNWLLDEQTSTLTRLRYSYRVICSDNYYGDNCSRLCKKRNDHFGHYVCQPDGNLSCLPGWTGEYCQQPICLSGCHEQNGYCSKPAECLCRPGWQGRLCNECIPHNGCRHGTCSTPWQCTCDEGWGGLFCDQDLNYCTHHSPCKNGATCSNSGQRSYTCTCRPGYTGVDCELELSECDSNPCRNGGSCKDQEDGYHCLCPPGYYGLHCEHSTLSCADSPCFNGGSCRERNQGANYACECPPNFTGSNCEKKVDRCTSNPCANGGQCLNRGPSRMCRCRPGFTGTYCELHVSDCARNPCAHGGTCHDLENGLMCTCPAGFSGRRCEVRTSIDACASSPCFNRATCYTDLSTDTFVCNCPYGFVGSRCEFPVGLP
Assay: SPR (BIACORE)
Task for the reader: assign each of the following binders its reported kon.
Only the number, expressed in M⁻¹ s⁻¹, is required.

IN: Item AB289 (antibody, human IgG1, kappa, V domains shown, CDR-grafted parent antibody) VH: EVQLVQSGTEVKKPGESLKISCKASGFTFSNFPMAWVRQMPGKGLEWVATISSSDGTTYYRDSVKGQFTISRDNSFNTLFLQWSSLKASDTAMYYCARGYYNSPFAYWGQGTMVTVSS VL: EIVMTQSPATLSVSPGERATLSCRASEDIYSNLAWYQQKPGQAPRLLIYDTNNLADDVPARFSGSGSGTEFTLTISSLQSEDFAVYYCQQYNNYPPTFGQGTRLEIKR : provide kon
OUT: 260000

IN: Item AB287 (antibody, human IgG1, kappa, V domains shown, CDR-grafted parent antibody) VH: EVTLRESGPALVKPTQTLTLTCTVSGGSISSSSYYWGWIRQPPGKGLEWIGDIYYTGSTYYNPSLKSRVTISVDTSKNQFVLTMTNMDPVDTATYYCARQALAMGGGSDKWGQGTTVTVSS VL: DYVLTQSPDSLAVSLGERATINCSGQRLGDKYASWYQQKPGQSPKLVIYEDSKRPSGIPDRFSGSNSGDDATLTISSLQAEDVAVYYCQAWDRDTGVFGGGTKVEIKR : provide kon
OUT: 84000
